Exercise: for every item that follows, state its recorded DC50.
- Assayed target: IKZF1 (Homo sapiens, UniProt Q13422+Q96SW2)
- Construct: expressed in transfected cells
- Sequence (Q13422 whole entry): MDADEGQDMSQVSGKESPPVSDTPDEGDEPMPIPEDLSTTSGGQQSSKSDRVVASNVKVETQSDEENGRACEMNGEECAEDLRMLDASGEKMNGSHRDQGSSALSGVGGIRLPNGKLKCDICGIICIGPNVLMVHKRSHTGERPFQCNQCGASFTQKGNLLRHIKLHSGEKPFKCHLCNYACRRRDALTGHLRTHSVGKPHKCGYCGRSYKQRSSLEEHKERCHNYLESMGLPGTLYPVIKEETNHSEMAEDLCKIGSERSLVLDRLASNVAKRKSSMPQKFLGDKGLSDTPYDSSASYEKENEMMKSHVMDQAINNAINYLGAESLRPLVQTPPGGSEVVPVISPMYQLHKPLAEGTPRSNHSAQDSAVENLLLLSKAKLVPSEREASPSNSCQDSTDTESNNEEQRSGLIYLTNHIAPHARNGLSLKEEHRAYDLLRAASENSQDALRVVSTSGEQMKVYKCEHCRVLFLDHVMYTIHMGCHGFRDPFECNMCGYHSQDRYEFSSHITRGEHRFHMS
- Sequence (Q96SW2 whole entry): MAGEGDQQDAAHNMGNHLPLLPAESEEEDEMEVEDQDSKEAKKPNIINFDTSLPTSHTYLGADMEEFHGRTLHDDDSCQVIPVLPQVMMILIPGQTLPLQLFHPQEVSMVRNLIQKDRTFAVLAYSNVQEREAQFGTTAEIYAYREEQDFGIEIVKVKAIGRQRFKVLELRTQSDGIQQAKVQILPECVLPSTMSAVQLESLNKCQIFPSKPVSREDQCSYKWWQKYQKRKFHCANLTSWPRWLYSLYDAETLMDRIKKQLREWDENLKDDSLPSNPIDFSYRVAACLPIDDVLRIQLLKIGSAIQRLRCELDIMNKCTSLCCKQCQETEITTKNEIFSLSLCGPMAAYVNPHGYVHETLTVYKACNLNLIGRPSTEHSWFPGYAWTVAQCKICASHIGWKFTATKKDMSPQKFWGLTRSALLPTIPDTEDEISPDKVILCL
- Sequence (Q16531 whole entry partner): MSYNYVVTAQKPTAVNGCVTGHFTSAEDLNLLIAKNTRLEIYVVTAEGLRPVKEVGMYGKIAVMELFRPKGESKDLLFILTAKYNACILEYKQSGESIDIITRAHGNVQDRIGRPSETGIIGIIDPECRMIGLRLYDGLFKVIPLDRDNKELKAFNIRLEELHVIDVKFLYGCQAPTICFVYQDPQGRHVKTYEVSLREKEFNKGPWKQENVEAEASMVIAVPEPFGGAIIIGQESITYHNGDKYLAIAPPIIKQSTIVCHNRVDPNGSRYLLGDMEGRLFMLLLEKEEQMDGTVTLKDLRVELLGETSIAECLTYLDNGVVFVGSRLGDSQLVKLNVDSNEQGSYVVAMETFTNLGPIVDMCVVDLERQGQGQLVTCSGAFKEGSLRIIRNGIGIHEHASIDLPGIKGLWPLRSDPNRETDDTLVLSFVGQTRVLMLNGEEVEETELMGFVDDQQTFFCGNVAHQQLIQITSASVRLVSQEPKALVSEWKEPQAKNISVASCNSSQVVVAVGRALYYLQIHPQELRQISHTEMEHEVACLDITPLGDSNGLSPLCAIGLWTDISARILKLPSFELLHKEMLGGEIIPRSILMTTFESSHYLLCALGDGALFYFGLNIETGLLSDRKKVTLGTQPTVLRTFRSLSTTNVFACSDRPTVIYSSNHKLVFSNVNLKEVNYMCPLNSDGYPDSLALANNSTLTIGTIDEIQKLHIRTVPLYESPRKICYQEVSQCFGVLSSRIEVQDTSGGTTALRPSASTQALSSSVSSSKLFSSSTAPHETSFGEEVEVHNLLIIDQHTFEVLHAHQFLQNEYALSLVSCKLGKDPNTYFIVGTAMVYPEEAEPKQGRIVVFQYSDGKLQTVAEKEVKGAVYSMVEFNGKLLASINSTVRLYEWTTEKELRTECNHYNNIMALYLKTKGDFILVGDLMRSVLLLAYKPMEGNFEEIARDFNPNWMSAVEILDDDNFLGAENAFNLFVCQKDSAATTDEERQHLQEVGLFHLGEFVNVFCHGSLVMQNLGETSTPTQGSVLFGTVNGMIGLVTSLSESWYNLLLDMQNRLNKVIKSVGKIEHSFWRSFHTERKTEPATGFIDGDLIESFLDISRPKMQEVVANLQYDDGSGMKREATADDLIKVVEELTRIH
- Protocol description: HEK293 HiBiT in vitro degradation of IKZF1
- Format: cell-based
- Details: HEK293 HiBiT, 18-24 hr incubation, normalized to DMSO control; read-out: IKZF1 EC50
Give the value in nM but do not write nM after it.

Query: Which value of DC50 has been reported for O=C1CCC(N2Cc3cc(C[C@H]4CCCC[C@@H]4NCc4cccnc4C(F)(F)F)ccc3C2=O)C(=O)N1 (stereo partly shown) in the records?
Reply: 206

Query: Which value of DC50 has been reported for CC1(C)CC(N[C@H]2CCCC[C@@H]2Cc2ccc3c(c2)CN(C2CCC(=O)NC2=O)C3=O)C1 (stereo partly shown) in the records?
Reply: 327

Query: Which value of DC50 has been reported for Cn1nccc1CN[C@H]1CCCC[C@@H]1Cc1ccc2c(c1)CN(C1CCC(=O)NC1=O)C2=O (stereo partly shown) in the records?
Reply: 265

Query: Which value of DC50 has been reported for N[C@H]1CCCC[C@@H]1Cc1ccc2c(c1)CN(C1CCC(=O)NC1=O)C2=O (stereo partly shown) in the records?
Reply: 933

---

Exercise: for every item that follows, state its recorded Dmax.
- Assayed target: IKZF2 (Homo sapiens, UniProt Q96SW2+Q9UKS7)
- Sequence (Q9UKS7 1-500 isoform Q9UKS7-2): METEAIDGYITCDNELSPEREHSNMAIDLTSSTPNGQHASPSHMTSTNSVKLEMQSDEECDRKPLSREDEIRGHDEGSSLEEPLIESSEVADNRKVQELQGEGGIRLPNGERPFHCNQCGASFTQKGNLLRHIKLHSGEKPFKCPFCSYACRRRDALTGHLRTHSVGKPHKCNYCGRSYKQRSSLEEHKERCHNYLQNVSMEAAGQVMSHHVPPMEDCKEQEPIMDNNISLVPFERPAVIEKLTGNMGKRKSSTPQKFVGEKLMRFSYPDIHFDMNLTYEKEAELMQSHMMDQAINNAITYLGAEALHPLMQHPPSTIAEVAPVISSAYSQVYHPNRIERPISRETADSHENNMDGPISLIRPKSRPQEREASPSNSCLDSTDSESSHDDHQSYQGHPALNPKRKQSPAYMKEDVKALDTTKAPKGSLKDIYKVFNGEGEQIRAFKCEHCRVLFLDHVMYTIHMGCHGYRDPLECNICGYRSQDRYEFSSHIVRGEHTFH
- Sequence (Q96SW2 whole entry): as the sequence (Q96SW2 whole entry) above
- Sequence (Q16531 whole entry partner): as the sequence (Q16531 whole entry partner) above
- Protocol description: HEK293 HiBiT in vitro degradation of IKZF2
- Assay type: cell-based
- Design: expressed in transfected cells
- Details: HEK293, HEK293 HiBiT; maximum degradation at the highest concentration tested
Give the value in % but do not write % after it.

Query: Which value of Dmax has been reported for N#CC1CCC(N[C@H]2CCCC[C@@H]2Cc2ccc3c(c2)CN(C2CCC(=O)NC2=O)C3=O)CC1 (single isomer, unassigned) [Example 267] in the records?
Reply: 98

Query: Which value of Dmax has been reported for CN(Cc1ccccc1)[C@H]1CCCC[C@@H]1Cc1ccc2c(c1)CN(C1CCC(=O)NC1=O)C2=O (stereo partly drawn) [Example 21] in the records?
Reply: 49

Query: Which value of Dmax has been reported for CC(N[C@H]1CCCC[C@@H]1Cc1ccc2c(c1)CN(C1CCC(=O)NC1=O)C2=O)C1(C(F)F)CC1 (stereo partly drawn) [Example 311] in the records?
Reply: 95

Query: Which value of Dmax has been reported for CC(CC(C)(C)C)N[C@H]1CCCC[C@@H]1Cc1ccc2c(c1)CN(C1CCC(=O)NC1=O)C2=O (stereo partly drawn) [Example 205] in the records?
Reply: 98

Query: Which value of Dmax has been reported for O=C1CCC(N2Cc3cc(C[C@H]4CCCC[C@@H]4NC4CC5(COC5)C4)ccc3C2=O)C(=O)N1 (stereo partly drawn) [Example 80] in the records?
Reply: 95

Query: Which value of Dmax has been reported for O=C1CC[C@@H](N2Cc3c(ccc(C[C@H]4CCCC[C@@H]4NC4CCC(F)(F)CC4)c3F)C2=O)C(=O)N1 (single isomer, unassigned) [Example 335] in the records?
Reply: 97

Query: Which value of Dmax has been reported for CC1(C)CC(N[C@H]2CCCC[C@@H]2Cc2ccc3c(c2)CN(C2CCC(=O)NC2=O)C3=O)CC(C)(C)C1 (stereo partly drawn) [Example 144] in the records?
Reply: 97

Query: Which value of Dmax has been reported for CC1CC[C@H](NC2CCC(F)(F)CC2)[C@@H](Cc2ccc3c(c2)CN(C2CCC(=O)NC2=O)C3=O)C1 (single isomer, unassigned) [Example 324] in the records?
Reply: 95

Query: Which value of Dmax has been reported for O=C1CCC(N2Cc3cc(C[C@H]4CCCC[C@@H]4NCc4ccc5ccccc5c4)ccc3C2=O)C(=O)N1 (stereo partly drawn) [Example 9] in the records?
Reply: 92

Query: Which value of Dmax has been reported for CC(CCCC(F)(F)F)N[C@H]1CCCO[C@@H]1Cc1ccc2c(c1F)CN(C1CCC(=O)NC1=O)C2=O (stereo partly drawn) [Example 321] in the records?
Reply: 94

Query: Which value of Dmax has been reported for CC(C)CC(C)N[C@H]1CCCC[C@@H]1Cc1ccc2c(c1)CN(C1CCC(=O)NC1=O)C2=O (stereo partly drawn) [Example 185] in the records?
Reply: 98

Query: Which value of Dmax has been reported for [2H]c1c([2H])c([2H])c(C([2H])N[C@H]2CCCC[C@@H]2Cc2ccc3c(c2)CN(C2CCC(=O)NC2=O)C3=O)c([2H])c1[2H] (single isomer, unassigned) [Example 120] in the records?
Reply: 90

Query: Which value of Dmax has been reported for O=C1CCC(N2Cc3cc(C[C@H]4CCCC[C@@H]4NC4CC5(CCOCC5)C4)ccc3C2=O)C(=O)N1 (stereo partly drawn) [Example 125] in the records?
Reply: 96

Query: Which value of Dmax has been reported for O=C1CCC(N2Cc3cc(C[C@H]4CCCC[C@@H]4NC4CC5(CCC(F)(F)CC5)C4)ccc3C2=O)C(=O)N1 (stereo partly drawn) [Example 142] in the records?
Reply: 95

Query: Which value of Dmax has been reported for CCCCN[C@H]1CCCC[C@@H]1Cc1ccc2c(c1)CN(C1CCC(=O)NC1=O)C2=O (stereo partly drawn) [Example 128] in the records?
Reply: 98

Query: Which value of Dmax has been reported for CC1(C)CC(N[C@H]2CCCC[C@@H]2Cc2ccc3c(c2)CN(C2CCC(=O)NC2=O)C3=O)CC(C)(C)O1 (stereo partly drawn) [Example 208] in the records?
Reply: 98

Query: Which value of Dmax has been reported for O=C1CCC(N2Cc3cc(C[C@H]4CCCC[C@@H]4NC4CCC(OC(F)F)CC4)ccc3C2=O)C(=O)N1 (stereo partly drawn) [Example 323] in the records?
Reply: 96

Query: Which value of Dmax has been reported for O=C1CCC(N2Cc3c(ccc(C[C@H]4OCCC[C@@H]4NC4CCOC4)c3F)C2=O)C(=O)N1 (single isomer, unassigned) [Example 296] in the records?
Reply: 86

Query: Which value of Dmax has been reported for O=C1CCC(N2Cc3cc(C[C@H]4OCCC[C@@H]4NC4CCC(F)CC4)ccc3C2=O)C(=O)N1 (single isomer, unassigned) [Example 366] in the records?
Reply: 85

Query: Which value of Dmax has been reported for CO[C@@H]1CCC[C@H](Cc2ccc3c(c2)CN(C2CCC(=O)NC2=O)C3=O)[C@H]1NC1CCC(F)(F)CC1 (stereo partly drawn) [Example 164] in the records?
Reply: 83

Query: Which value of Dmax has been reported for O=C1CCC(N2Cc3cc(C[C@H]4CCCC[C@@H]4NC4Cc5ccccc5C4)ccc3C2=O)C(=O)N1 (stereo partly drawn) [Example 177] in the records?
Reply: 97

Query: Which value of Dmax has been reported for CC(N[C@H]1CCCC[C@@H]1Cc1ccc2c(c1)CN(C1CCC(=O)NC1=O)C2=O)C1CCCO1 (single isomer, unassigned) [Example 253] in the records?
Reply: 96

Query: Which value of Dmax has been reported for CC1(C)COCCC1N[C@H]1CCCC[C@@H]1Cc1ccc2c(c1)CN(C1CCC(=O)NC1=O)C2=O (stereo partly drawn) [Example 192] in the records?
Reply: 94

Query: Which value of Dmax has been reported for O=C1CCC(N2Cc3cc(C[C@H]4CCCC[C@@H]4N4CC(c5ccccc5)C4)ccc3C2=O)C(=O)N1 (stereo partly drawn) [Example 55] in the records?
Reply: 87

Query: Which value of Dmax has been reported for COc1ccc(CN[C@H]2CCCC[C@@H]2Cc2ccc3c(c2)CN(C2CCC(=O)NC2=O)C3=O)cc1 (stereo partly drawn) [Example 14] in the records?
Reply: 88

Query: Which value of Dmax has been reported for O=C1CCC(N2Cc3cc(C[C@H]4CCCC[C@@H]4NCCC(F)(F)F)ccc3C2=O)C(=O)N1 (stereo partly drawn) [Example 104] in the records?
Reply: 92

Query: Which value of Dmax has been reported for O=C1CCC(N2Cc3cc(C[C@H]4CCCC[C@@H]4NC4COC4)ccc3C2=O)C(=O)N1 (stereo partly drawn) [Example 72] in the records?
Reply: 83
